Numbers sourced from the EternaBench riboswitch data.

# System: MS2 coat protein
# test.summary: apparent Kd, MS2 coat protein; higher = weaker binding; RNA-MaP array
# particulars: ligand present: tryptophan; designed as: ON switch for tryptophan
Where apparent Kd equals or exceeds 0.03 µM, the correct label is 1; where it does not, the label is -1.

Reported apparent Kd reaches at least 0.03 µM for ACACACAUGAGGAUCACCCAUGUCUAUAUACGAGGACCGGUACGGCCGCCACUCGUGAGAUCGCGAGAGACAGCUUUGGGCUAGU ?
-1

Reported apparent Kd reaches at least 0.03 µM for GCGACACUCACGGCCGCCACUGAUUAGCCCAGUAUGGAGCCCACACAUGAGGAUCACCCAUGUCACAGGACCGGGUGGGUCUAUU ?
-1
